- Tested on: Escherichia coli TOP10
- Procedure summary: shrunken log2 fold change of peptide-encoding DNA abundance (4.5 h post-induction vs induction); higher = less antimicrobial activity (less host growth inhibition)
- Reported conditions: time post-induction: 4.5 h; library: site-saturation at positions 5, 18, 19, 20
If the reported shrunken log2 fold change equals or exceeds 0.03, assign fulfilled. If not, assign not fulfilled.

{"columns": ["Seq string", "Classification"],
 "data": [
  ["RRIRHRPPRLPRPRPRPTEKPRP", "not fulfilled"],
  ["RRIRCRPPRLPRPRPRPLVAPRP", "fulfilled"],
  ["RRIRNRPPRLPRPRPRPAEFPRP", "not fulfilled"],
  ["RRIRWRPPRLPRPRPRPLEVPRP", "not fulfilled"]
]}

Hello, I need to know if "RRIRDRPPRLPRPRPRPCPKPRP" has measured shrunken log2 fold change not below 0.03. Thanks!
not fulfilled

Exam item: decide whether the reported shrunken log2 fold change for "RRIRTRPPRLPRPRPRPLEIPRP" is at least 0.03.
fulfilled

Dear colleague, could you confirm whether "RRIRSRPPRLPRPRPRPTDRPRP" has shrunken log2 fold change at or above 0.03?
not fulfilled

I'd appreciate it if you could say whether "RRIRQRPPRLPRPRPRPARWPRP" has shrunken log2 fold change at least equal to 0.03.
fulfilled

====

Known shrunken log2 fold change of a selection of sequences
- Test system: Escherichia coli TOP10
- Procedure summary: shrunken log2 fold change of peptide-encoding DNA abundance (4.5 h post-induction vs induction); higher = less antimicrobial activity (less host growth inhibition)
- Reported conditions: time post-induction: 4.5 h; library: site-saturation at positions 5, 18, 19, 20

{"columns": ["Seq string", "shrunken log2 fold change"],
 "data": [
  ["RRIRDRPPRLPRPRPRPGETPRP", 0.0408],
  ["RRIRGRPPRLPRPRPRPLLPPRP", 0.895],
  ["RRIRVRPPRLPRPRPRPELKPRP", -0.341],
  ["RRIRERPPRLPRPRPRPLGPPRP", 0.099],
  ["RRIRLRPPRLPRPRPRPSCEPRP", -0.0674]
]}

Fill in the recorded shrunken log2 fold change for this sequence, with Escherichia coli TOP10 as test system: "RRIRARPPRLPRPRPRPLKAPRP"
0.16

Form field - read-out: shrunken log2 fold change; system: Escherichia coli TOP10; submitted item: "RRIRTRPPRLPRPRPRPVTDPRP"
0.0266

Please provide the recorded shrunken log2 fold change for "RRIRQRPPRLPRPRPRPPEEPRP" , tested on Escherichia coli TOP10.
-0.00674

====

Listed next: entries and their corresponding shrunken log2 fold change.
- Test system: Escherichia coli TOP10;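 further: peptides expressed intracellularly from a pBAD plasmid library in pooled LB shake-flask culture, induced with 0.3% L-arabinose, DNA abundance read by NGS, three biological replicates, DESeq2 with apeglm shrinkage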
- Procedure summary: shrunken log2 fold change of peptide-encoding DNA abundance (4.5 h post-induction vs induction); higher = less antimicrobial activity (less host growth inhibition)
- Reported conditions: time post-induction: 4.5 h; library: site-saturation at positions 5, 18, 19, 20
Please reply with the value in numeric form only.

Would you please look over these solved cases?
{"columns": ["Seq string", "System", "shrunken log2 fold change"],
 "data": [
  ["RRIRMRPPRLPRPRPRPVCAPRP", "Escherichia coli TOP10", 0.698],
  ["RRIRSRPPRLPRPRPRPNSCPRP", "Escherichia coli TOP10", -0.121],
  ["RRIRSRPPRLPRPRPRPAWCPRP", "Escherichia coli TOP10", 0.545],
  ["RRIRMRPPRLPRPRPRPVESPRP", "Escherichia coli TOP10", 0.00581],
  ["RRIRGRPPRLPRPRPRPVFKPRP", "Escherichia coli TOP10", 0.193],
  ["RRIRWRPPRLPRPRPRPMFHPRP", "Escherichia coli TOP10", -0.271],
  ["RRIRTRPPRLPRPRPRPANKPRP", "Escherichia coli TOP10", -0.216],
  ["RRIRLRPPRLPRPRPRPMIMPRP", "Escherichia coli TOP10", -0.159]
]}

Bench note: what shrunken log2 fold change did "RRIRIRPPRLPRPRPRPNHGPRP" show?
-0.413

For the sequence shown here, "RRIRARPPRLPRPRPRPGEAPRP" , give the reported shrunken log2 fold change.
0.942

Quick one: shrunken log2 fold change for "RRIRDRPPRLPRPRPRPCVCPRP" ?
-0.0348

Returns the measured shrunken log2 fold change for the input sequence. Input: "RRIRHRPPRLPRPRPRPCDFPRP"
-0.0501

Using the record for "RRIRSRPPRLPRPRPRPQERPRP" , report its shrunken log2 fold change.
-0.0153

Entry under review: "RRIRERPPRLPRPRPRPRKYPRP" . Reported shrunken log2 fold change?
-0.201

Entry "RRIRFRPPRLPRPRPRPGLLPRP" : reported shrunken log2 fold change = ?
0.032
